Numbers sourced from paper PMC4842970.

Assay: ORACFL radical absorbance capacity assay
Conditions: 12.5 μg/ml
Given measured ORAC, output criterion met if it is greater than or equal to 50 U/ml and criterion not met if not.

# example entries with known answers
CC(=O)N1CCC[C@@H]1C(=O)NCCNC(=O)/C(C#N)=C/c1ccc(O)cc1; criterion not met
CC(=O)N[C@@H](COCc1ccccc1)C(=O)NCCNC(=O)/C(C#N)=C/c1ccc(O)cc1; criterion not met
CC(=O)N[C@@H](COCc1ccccc1)C(=O)NCCCNC(=O)/C(C#N)=C/c1ccc(O)cc1; criterion met
Cc1c(C)c2c(c(C)c1O)CCC(C)(C(=O)O)O2 (stereo not drawn) [Trolox, reference compound]; criterion met

Okay, next one:
Query: Could you tell me if the measured ORAC of CC(C)(C)C(=O)N[C@H](COCc1ccccc1)C(=O)NCCNC(=O)/C(C#N)=C/c1ccc(O)cc1 reaches 50 U/ml or more?
Result: criterion not met

* * *

Assay: ORACFL radical absorbance capacity assay
Conditions: 12.5 μg/ml
Entries and their ORAC
Numeric only. Scale: U/ml

Worked cases, answers included:
CC(C)(C)C(=O)N[C@@H](COCc1ccccc1)C(=O)NCCCNC(=O)/C(C#N)=C/c1ccc(O)cc1; 35.3
CC(=O)N[C@H](COCc1ccccc1)C(=O)NCCNC(=O)/C(C#N)=C/c1ccc(O)cc1; 33.3
CC(C)(C)C(=O)N[C@H](COCc1ccccc1)C(=O)NCCCNC(=O)/C(C#N)=C/c1ccc(O)cc1; 30.6

Query: Check the records and state ORAC for N#CC(=Cc1ccc(O)cc1)C(=O)O [CHCA, α-cyano-4-hydroxycinnamic acid]
Result: 48.8

Query: Check the records and state ORAC for O=c1c2cc(O)c(O)cc2oc2cc(O)c([C@@H]3O[C@H](CO)[C@@H](O)[C@H](O)[C@H]3O)c(O)c12 [Mangiferin, reference compound]
Result: 73.2

Query: Check the records and state ORAC for CC(=O)N[C@H](COCc1ccccc1)C(=O)NCCCNC(=O)/C(C#N)=C/c1ccc(O)cc1
Result: 65.7

Query: Check the records and state ORAC for CC(C)(C)C(=O)N[C@@H](COCc1ccccc1)C(=O)NCCNC(=O)/C(C#N)=C/c1ccc(O)cc1
Result: 30.4

* * *

Molecular target: human ALR2 (Homo sapiens, UniProt P15121)
Construct: purchased WAKO Pure Chemical Industries, Ltd. (Japan); host or cells: baculovirus-insect cell expression system
Assay: ALR2 inhibition (in vitro reduction of D,L-glyceraldehyde)
Format: biochemical
Details: human ALR2, D,L-glyceraldehyde as substrate; read-out: IC50 (ALR2 inhibition)
Entries and their IC50
Numeric only. Scale: µM

Worked cases, answers included:
CC(=O)N[C@@H](COCc1ccccc1)C(=O)NCCNC(=O)/C(C#N)=C/c1ccc(O)cc1 [Compound 5c]; 0.316
CC(C)(C)C(=O)N[C@@H](COCc1ccccc1)C(=O)NCCNC(=O)/C(C#N)=C/c1ccc(O)cc1 [Compound 5g]; 0.273
CC(=O)N[C@H](COCc1ccccc1)C(=O)NCCCNC(=O)/C(C#N)=C/c1ccc(O)cc1 [Compound 5f]; 0.0727
CC(C)(C)C(=O)N[C@H](COCc1ccccc1)C(=O)NCCNC(=O)/C(C#N)=C/c1ccc(O)cc1 [Compound 5h]; 0.252
CC(=O)N1CCC[C@H]1C(=O)NCCNC(=O)/C(C#N)=C/c1ccc(O)cc1 [Compound 5a]; 0.137

Query: Check the records and state IC50 for CC(C)(C)C(=O)N[C@H](COCc1ccccc1)C(=O)NCCCNC(=O)/C(C#N)=C/c1ccc(O)cc1 [Compound 5j]
Result: 0.247

Query: Check the records and state IC50 for CC(=O)N[C@H](COCc1ccccc1)C(=O)NCCNC(=O)/C(C#N)=C/c1ccc(O)cc1 [Compound 5d]
Result: 0.404

* * *

Target: human ALR2 (Homo sapiens)
Construct: purchased WAKO Pure Chemical Industries, Ltd. (Japan); host or cells: baculovirus-insect cell expression system
Experiment: ALR2 inhibition (in vitro reduction of D,L-glyceraldehyde)
Format: biochemical
Details: human ALR2, D,L-glyceraldehyde as substrate; read-out: IC50 (ALR2 inhibition)
READOUT_LABEL: pIC50
pIC50 (log units): -log10 of the concentration in mol/L.

CC(C)(C)C(=O)N[C@@H](COCc1ccccc1)C(=O)NCCCNC(=O)/C(C#N)=C/c1ccc(O)cc1 [Compound 5i]; 6.66
CC(=O)N[C@@H](COCc1ccccc1)C(=O)NCCCNC(=O)/C(C#N)=C/c1ccc(O)cc1 [Compound 5e]; 7.00
O=c1c2cc(O)c(O)cc2oc2cc(O)c([C@@H]3O[C@H](CO)[C@@H](O)[C@H](O)[C@H]3O)c(O)c12 [Mangiferin, reference compound]; 6.86

Query: With human ALR2 (Homo sapiens) as the test system, provide measured pIC50 for this compound: CC(=O)N1CCC[C@@H]1C(=O)NCCNC(=O)/C(C#N)=C/c1ccc(O)cc1 [Compound 5b]
Result: 6.87
